experiment: Saturated solubility of tiotropium bromide in propellants, content assay after filtration; type: physicochemical; conditions: saturated propellant solution, organic solvent or mixture, thermodynamic from solid, HFA-134a, 20% ethanol, 0.4% citric acid; read-out: Mean TB solubility
assay-endpoint: solubility
Write the numeric value and follow it with the unit.

// query Requested field: solubility. Item: C[N+]1(C)[C@@H]2C[C@@H](OC(=O)C(O)(c3cccs3)c3cccs3)C[C@H]1[C@@H]1O[C@@H]12 [TB, tiotropium bromide]
// result 122 µg/mL
